Hey, just so you know, these numbers are from the RNAGym collection of RNA variant scans (doi:10.1073/pnas.2313332121).

B1: TPR 5TU (parent)
chain: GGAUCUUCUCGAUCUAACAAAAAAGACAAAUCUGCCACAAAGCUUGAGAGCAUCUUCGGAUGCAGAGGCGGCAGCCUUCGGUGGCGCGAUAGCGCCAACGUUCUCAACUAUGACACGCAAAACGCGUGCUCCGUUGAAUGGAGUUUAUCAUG

variants of: B1; assay: polymerase ribozyme fitness, log enrichment relative to wild type (log ratio); higher = more active; in vitro selection for triplet polymerase activity
This sample holds only a part of the variants without activity.
Readout Kind: polymerase ribozyme fitness (log ratio)
Give bare numbers.

Q: Given the entry `C57A` , report its measured polymerase ribozyme fitness (log ratio).
Ans: -0.00233

Q: Using the record for U33G A113C , report its polymerase ribozyme fitness (log ratio).
Ans: -4.01

Q: Give the measured polymerase ribozyme fitness (log ratio) of U7A A29U C35U A66C U82G A113U .
Ans: -3.86

Q: What value of polymerase ribozyme fitness (log ratio) has been reported for the following variant? C5U A22C C85A
Ans: -9.25e-05

Q: Entry under review: U13A U135A . Reported polymerase ribozyme fitness (log ratio)?
Ans: -0.229

Q: What polymerase ribozyme fitness (log ratio) value was documented for this variant, A20C U130G U144C ?
Ans: -4.14

Q: # input variant: A47C C54U G83U A142G ; wanted: its polymerase ribozyme fitness (log ratio)
Ans: -2.18

Q: Please report the recorded polymerase ribozyme fitness (log ratio) for C69U C132G G140U .
Ans: -1

Q: Any idea what its polymerase ribozyme fitness (log ratio) is? The variant is A21G A37U G59A A60C
Ans: -3.22

Q: For C38A C93G C123G , what is its reported polymerase ribozyme fitness (log ratio)?
Ans: -3.67

Report polymerase ribozyme fitness (log ratio) for every entry below.
1. U33C C69U
2. A21U C57U C93U C96A C116U
3. A17C C57U U82C
4. C57G G84A C103U A110G
5. G112C
6. C14A G58A A89U G94U
7. A91U A97G
8. A22U U134A

Ans:
1. -0.0558
2. -1.6
3. -0.0541
4. -3.52
5. -2.68
6. -3.75
7. -3.67
8. -2.01
